Listed sequences paired with reported shrunken log2 fold change
Test system: Escherichia coli TOP10;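 note: peptides expressed intracellularly from a pBAD plasmid library in pooled LB shake-flask culture, induced with 0.3% L-arabinose, DNA abundance read by NGS, three biological replicates, DESeq2 with apeglm shrinkage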
Procedure Text: shrunken log2 fold change of peptide-encoding DNA abundance (4.5 h post-induction vs induction); higher = less antimicrobial activity (less host growth inhibition)
Experimental Parameters: time post-induction: 4.5 h; library: site-saturation at positions 5, 18, 19, 20
Endpoint Name: shrunken log2 fold change

- RRIRGRPPRLPRPRPRPSSCPRP: 0.316
- RRIRVRPPRLPRPRPRPGHTPRP: -0.000319
- RRIRCRPPRLPRPRPRPIISPRP: -0.346
- RRIRTRPPRLPRPRPRPCFCPRP: -0.259
- RRIRTRPPRLPRPRPRPCPWPRP: -0.21
- RRIRMRPPRLPRPRPRPCSLPRP: -0.0103
- RRIRPRPPRLPRPRPRPAEFPRP: -0.0142
- RRIRHRPPRLPRPRPRPCSGPRP: -0.0968
- RRIRTRPPRLPRPRPRPRQQPRP: 0.349
- RRIRERPPRLPRPRPRPTTRPRP: 0.0679
- RRIRQRPPRLPRPRPRPFYQPRP: -0.104
- RRIRCRPPRLPRPRPRPPANPRP: 0.521
- RRIRQRPPRLPRPRPRPGDLPRP: 0.01
- RRIRCRPPRLPRPRPRPDHRPRP: -0.106
- RRIRWRPPRLPRPRPRPNHMPRP: -0.227
- RRIRGRPPRLPRPRPRPNNIPRP: -0.163
- RRIRQRPPRLPRPRPRPQQSPRP: -0.0224
- RRIRWRPPRLPRPRPRPRMEPRP: 0.439
- RRIRCRPPRLPRPRPRPPVLPRP: -0.169
- RRIRLRPPRLPRPRPRPNNNPRP: -0.673
- RRIRPRPPRLPRPRPRPDTDPRP: -0.158
- RRIRSRPPRLPRPRPRPLVPPRP: -0.0319
- RRIRSRPPRLPRPRPRPGFCPRP: 0.108
- RRIRVRPPRLPRPRPRPHHCPRP: -0.74
- RRIRVRPPRLPRPRPRPPWAPRP: 0.537
- RRIRARPPRLPRPRPRPCTLPRP: 0.151
- RRIRWRPPRLPRPRPRPACMPRP: 0.164
- RRIRDRPPRLPRPRPRPLVDPRP: 0.11
- RRIRQRPPRLPRPRPRPHDTPRP: -0.152
- RRIRARPPRLPRPRPRPFKTPRP: 0.0511
- RRIRSRPPRLPRPRPRPSKYPRP: -0.345
- RRIRGRPPRLPRPRPRPDEKPRP: 0.233
- RRIRCRPPRLPRPRPRPWNGPRP: -0.0552
- RRIRQRPPRLPRPRPRPYFMPRP: -0.89
- RRIRFRPPRLPRPRPRPLDLPRP: -0.366
- RRIRNRPPRLPRPRPRPLAVPRP: 0.0686
- RRIRVRPPRLPRPRPRPRSHPRP: 0.0021
- RRIRPRPPRLPRPRPRPCNPPRP: -0.0662
- RRIRPRPPRLPRPRPRPHVDPRP: -0.029

Numbers sourced from the supplement of paper PMC9112550.
